Catalogue of PDGF Kinase %Inhibition values
target: PDGF-R (Homo sapiens, UniProt P09619); assay: PDGF-R ELISA; assay type: cell-based
Sequence (P09619 33-1106, species assumed): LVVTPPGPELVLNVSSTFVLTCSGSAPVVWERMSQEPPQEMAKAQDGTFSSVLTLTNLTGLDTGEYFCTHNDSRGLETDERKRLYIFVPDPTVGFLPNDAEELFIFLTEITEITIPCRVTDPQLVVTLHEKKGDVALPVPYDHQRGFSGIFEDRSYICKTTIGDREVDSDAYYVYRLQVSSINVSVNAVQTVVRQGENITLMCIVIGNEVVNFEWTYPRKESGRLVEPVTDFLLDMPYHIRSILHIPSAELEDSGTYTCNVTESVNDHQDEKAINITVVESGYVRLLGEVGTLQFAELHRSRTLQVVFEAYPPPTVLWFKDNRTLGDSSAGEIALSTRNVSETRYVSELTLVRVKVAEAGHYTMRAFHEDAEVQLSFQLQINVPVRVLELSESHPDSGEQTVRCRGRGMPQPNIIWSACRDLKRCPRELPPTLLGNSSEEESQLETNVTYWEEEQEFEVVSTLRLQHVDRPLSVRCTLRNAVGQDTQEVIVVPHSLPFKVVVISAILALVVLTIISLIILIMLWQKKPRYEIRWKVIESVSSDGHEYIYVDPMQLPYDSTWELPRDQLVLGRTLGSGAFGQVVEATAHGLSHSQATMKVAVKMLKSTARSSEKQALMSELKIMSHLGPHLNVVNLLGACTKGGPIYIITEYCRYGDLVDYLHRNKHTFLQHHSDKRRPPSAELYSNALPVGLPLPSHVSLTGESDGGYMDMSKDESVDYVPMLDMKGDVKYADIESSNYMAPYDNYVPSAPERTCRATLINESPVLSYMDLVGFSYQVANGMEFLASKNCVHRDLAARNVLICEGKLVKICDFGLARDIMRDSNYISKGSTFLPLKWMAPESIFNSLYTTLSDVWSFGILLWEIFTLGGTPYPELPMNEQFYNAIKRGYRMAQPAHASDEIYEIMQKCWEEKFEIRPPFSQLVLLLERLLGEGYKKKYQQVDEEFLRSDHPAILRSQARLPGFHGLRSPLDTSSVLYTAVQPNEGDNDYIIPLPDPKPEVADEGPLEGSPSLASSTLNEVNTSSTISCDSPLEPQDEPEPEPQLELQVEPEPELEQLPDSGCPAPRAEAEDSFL
# output: bare number, implied unit %

Some compounds with recorded PDGF Kinase %Inhibition:
- COMPOUND: "CNS(=O)(=O)c1ccc2c(c1)C(=Cc1ccc(SC)cc1)C(=O)N2"
  ASSAYED SYSTEM: "PDGF-R (Homo sapiens, UniProt P09619)"
  PDGF Kinase %Inhibition [%]: -12.8
- COMPOUND: "COc1cccc(C=C2C(=O)Nc3ccc(CCCl)cc32)c1O"
  ASSAYED SYSTEM: "PDGF-R (Homo sapiens, UniProt P09619)"
  PDGF Kinase %Inhibition [%]: 6.2
- COMPOUND: "COC1CC(C=C2C(=O)Nc3ccc(S(=O)(=O)Nc4ccc(C(F)(F)F)cc4)cc32)C(OC)O1 (centres unmarked)"
  ASSAYED SYSTEM: "PDGF-R (Homo sapiens, UniProt P09619)"
  PDGF Kinase %Inhibition [%]: 39.6
- COMPOUND: "CNS(=O)(=O)c1ccc2c(c1)C(=Cc1cccc(Br)c1)C(=O)N2"
  ASSAYED SYSTEM: "PDGF-R (Homo sapiens, UniProt P09619)"
  PDGF Kinase %Inhibition [%]: 21.4
- COMPOUND: "CC(C)c1cc(C=C2C(=O)Nc3ccc(S(=O)(=O)Nc4ccc(C(F)(F)F)cc4)cc32)cc(C(C)C)c1O"
  ASSAYED SYSTEM: "PDGF-R (Homo sapiens, UniProt P09619)"
  PDGF Kinase %Inhibition [%]: 6.3
- COMPOUND: "CC(C)(C)c1cc(C=C2C(=O)Nc3ccc(S(=O)(=O)Nc4ccc(C(F)(F)F)cc4)cc32)cc(I)c1OCc1ccccc1"
  ASSAYED SYSTEM: "PDGF-R (Homo sapiens, UniProt P09619)"
  PDGF Kinase %Inhibition [%]: 20.8
- COMPOUND: "CNS(=O)(=O)c1ccc2c(c1)C(=Cc1ccc([N+](=O)[O-])c(O)c1)C(=O)N2"
  ASSAYED SYSTEM: "PDGF-R (Homo sapiens, UniProt P09619)"
  PDGF Kinase %Inhibition [%]: -1.3

Lab note: measured PDGF Kinase %Inhibition of CNS(=O)(=O)c1ccc2c(c1)C(=Cc1sc3scc(C)c3c1C)C(=O)N2 was 29.3

---

target: FLK-1 receptor (Mus musculus); construct: expressed in transfected cells; host or cells: NIH3T3 C7#3; test: FLK-1 ELISA (kinase activity of the FLK-1 receptor in FLK-1/NIH3T3 cells, VEGF stimulated); type: cell-based
MEASURE NAME: Fik Kinase %Inhibition

Some compounds with recorded Fik Kinase %Inhibition:
- COMPOUND: "CC(C)(C)c1cc(C=C2C(=O)Nc3ccc(I)cc32)cc(Br)c1O [10721/B10]"
  ASSAYED SYSTEM: "FLK-1 receptor (Mus musculus)"
  RESULT: "20.9%"
- COMPOUND: "CCN(CC)c1ccc(C=C2C(=O)Nc3ccc(Br)c(C)c32)c(O)c1 [10734/C05]"
  ASSAYED SYSTEM: "FLK-1 receptor (Mus musculus)"
  RESULT: "-10.3%"
- COMPOUND: "CCc1ccc(C=C2C(=O)Nc3ccc(S(=O)(=O)N4CCOCC4)cc32)s1 [10726/F10]"
  ASSAYED SYSTEM: "FLK-1 receptor (Mus musculus)"
  RESULT: "7.0%"

Here O=C1Nc2c(Br)cc(Br)cc2C1=Cc1ccc(O)c(O)c1O [10723/A02] was tested on FLK-1 receptor (Mus musculus), and its Fik Kinase %Inhibition came to -5.5%

Here CCOc1cccc(C=C2C(=O)Nc3ccc(I)cc32)c1O [10734/B02] was tested on FLK-1 receptor (Mus musculus), and its Fik Kinase %Inhibition came to 8.5%

---

target: EGFR (Homo sapiens, UniProt P00533); construct: Add 7 ug A431 cell lysate per well (EGFR source); endogenous in cells; host or cells: A431; assay: EGFR ELISA assay (in vitro kinase activity, EGFR captured from A431 cell lysate); assay type: biochemical; parameters: concentration or dose not given beside the values
Sequence (P00533 25-1210): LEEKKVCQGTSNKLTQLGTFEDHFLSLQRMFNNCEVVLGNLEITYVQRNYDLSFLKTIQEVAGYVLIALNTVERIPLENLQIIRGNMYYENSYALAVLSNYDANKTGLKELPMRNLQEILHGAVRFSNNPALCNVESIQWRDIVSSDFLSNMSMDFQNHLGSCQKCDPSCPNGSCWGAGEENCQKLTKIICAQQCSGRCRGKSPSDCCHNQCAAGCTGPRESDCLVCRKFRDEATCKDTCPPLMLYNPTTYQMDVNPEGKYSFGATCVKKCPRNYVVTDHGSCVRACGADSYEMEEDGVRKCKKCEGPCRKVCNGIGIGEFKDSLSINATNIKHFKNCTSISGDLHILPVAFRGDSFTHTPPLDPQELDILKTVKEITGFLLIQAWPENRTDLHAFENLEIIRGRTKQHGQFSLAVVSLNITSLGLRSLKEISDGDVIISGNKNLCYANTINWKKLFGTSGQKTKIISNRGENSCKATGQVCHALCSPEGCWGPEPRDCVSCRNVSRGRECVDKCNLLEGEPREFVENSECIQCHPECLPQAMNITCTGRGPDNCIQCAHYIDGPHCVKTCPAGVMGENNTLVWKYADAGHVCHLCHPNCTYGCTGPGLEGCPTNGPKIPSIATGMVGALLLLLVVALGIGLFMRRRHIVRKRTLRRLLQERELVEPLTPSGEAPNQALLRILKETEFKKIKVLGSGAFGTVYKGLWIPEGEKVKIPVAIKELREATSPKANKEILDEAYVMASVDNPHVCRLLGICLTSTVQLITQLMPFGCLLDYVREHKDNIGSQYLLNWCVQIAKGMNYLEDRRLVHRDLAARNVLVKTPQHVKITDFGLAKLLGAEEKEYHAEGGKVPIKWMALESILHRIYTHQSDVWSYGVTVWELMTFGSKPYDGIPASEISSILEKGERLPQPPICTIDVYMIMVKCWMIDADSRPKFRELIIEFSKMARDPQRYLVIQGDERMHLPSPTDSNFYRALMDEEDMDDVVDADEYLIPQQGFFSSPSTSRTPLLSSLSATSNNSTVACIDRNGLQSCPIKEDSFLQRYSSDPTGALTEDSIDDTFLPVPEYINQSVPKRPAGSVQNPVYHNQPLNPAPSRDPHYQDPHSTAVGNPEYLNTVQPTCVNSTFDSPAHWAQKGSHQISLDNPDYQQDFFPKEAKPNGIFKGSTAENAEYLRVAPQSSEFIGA
Biochem EGFR %Inhibition strictly under 30% means 1 (yes); at 30% or over means 0 (no).

- COMPOUND: "CC(C)(C)c1cc(C=C2C(=O)Nc3ccc(S(=O)(=O)N4CCOCC4)cc32)cc(I)c1OCc1ccccc1"
  CATEGORY LABEL: "1 (yes)"
- COMPOUND: "Cc1ccsc1C=C1C(=O)Nc2ccc(Br)c(C)c21"
  CATEGORY LABEL: "1 (yes)"
- COMPOUND: "COc1ccc(C=C2C(=O)Nc3ccc(CCCl)cc32)c(OC)c1OC"
  CATEGORY LABEL: "1 (yes)"
- COMPOUND: "Cc1c(Br)ccc2c1C(=Cc1cc(C(C)(C)C)c(O)c(C(C)(C)C)c1)C(=O)N2"
  CATEGORY LABEL: "1 (yes)"
- COMPOUND: "COc1ccc(C=C2C(=O)Nc3ccc(CCCl)cc32)c2ccccc12"
  CATEGORY LABEL: "1 (yes)"

Enquiry: Check if Biochem EGFR %Inhibition falls below 30% for Cc1c(Br)ccc2c1C(=Cc1cccc(Oc3ccccc3)c1)C(=O)N2 .
Return: 0 (no)

Enquiry: Check if Biochem EGFR %Inhibition falls below 30% for CCOC(=O)c1c(C)[nH]c(C=C2C(=O)Nc3ccc(CCCl)cc32)c1C .
Return: 0 (no)

Enquiry: Check if Biochem EGFR %Inhibition falls below 30% for Cc1[nH]c(C=C2C(=O)Nc3ccc(S(=O)(=O)Nc4ccc(C(F)(F)F)cc4)cc32)c(Br)c1Br .
Return: 0 (no)

Enquiry: Check if Biochem EGFR %Inhibition falls below 30% for CNS(=O)(=O)c1ccc2c(c1)C(=Cc1cn(C(C)=O)c3ccccc13)C(=O)N2 .
Return: 1 (yes)

Enquiry: Check if Biochem EGFR %Inhibition falls below 30% for O=C1Nc2ccc(I)cc2C1=Cc1ccc(O)cc1 .
Return: 1 (yes)

Enquiry: Check if Biochem EGFR %Inhibition falls below 30% for Cc1cc(C=C2C(=O)Nc3c(Br)cc(Br)cc32)cc(C(C)(C)C)c1O .
Return: 0 (no)

Enquiry: Check if Biochem EGFR %Inhibition falls below 30% for O=C1Nc2ccc(CCCl)cc2C1=Cc1ccc(-c2ccccc2Cl)o1 .
Return: 1 (yes)

Enquiry: Check if Biochem EGFR %Inhibition falls below 30% for COc1c(O)ccc(C=C2C(=O)Nc3ccc(CCCl)cc32)c1[N+](=O)[O-] .
Return: 1 (yes)

Enquiry: Check if Biochem EGFR %Inhibition falls below 30% for Cc1c(Br)ccc2c1C(=Cc1ccc(N(C)C)c3ccccc13)C(=O)N2 .
Return: 0 (no)

Enquiry: Check if Biochem EGFR %Inhibition falls below 30% for COc1cc(C=C2C(=O)Nc3ccc(I)cc32)cc2c1OCO2 .
Return: 0 (no)

Enquiry: Check if Biochem EGFR %Inhibition falls below 30% for COc1cccc(C=C2C(=O)Nc3ccc(I)cc32)c1O .
Return: 1 (yes)

Enquiry: Check if Biochem EGFR %Inhibition falls below 30% for COC1CC(C=C2C(=O)Nc3c(Br)cc(Br)cc32)C(OC)O1 (stereo not drawn) .
Return: 0 (no)

---

molecular target: FLK-1 receptor (Mus musculus, UniProt P35918); construct: expressed in transfected cells; host or cells: NIH3T3 C7#3; experiment: FLK-1 ELISA (kinase activity of the FLK-1 receptor in FLK-1/NIH3T3 cells, VEGF stimulated); format: cell-based
Sequence (P35918 20-1345): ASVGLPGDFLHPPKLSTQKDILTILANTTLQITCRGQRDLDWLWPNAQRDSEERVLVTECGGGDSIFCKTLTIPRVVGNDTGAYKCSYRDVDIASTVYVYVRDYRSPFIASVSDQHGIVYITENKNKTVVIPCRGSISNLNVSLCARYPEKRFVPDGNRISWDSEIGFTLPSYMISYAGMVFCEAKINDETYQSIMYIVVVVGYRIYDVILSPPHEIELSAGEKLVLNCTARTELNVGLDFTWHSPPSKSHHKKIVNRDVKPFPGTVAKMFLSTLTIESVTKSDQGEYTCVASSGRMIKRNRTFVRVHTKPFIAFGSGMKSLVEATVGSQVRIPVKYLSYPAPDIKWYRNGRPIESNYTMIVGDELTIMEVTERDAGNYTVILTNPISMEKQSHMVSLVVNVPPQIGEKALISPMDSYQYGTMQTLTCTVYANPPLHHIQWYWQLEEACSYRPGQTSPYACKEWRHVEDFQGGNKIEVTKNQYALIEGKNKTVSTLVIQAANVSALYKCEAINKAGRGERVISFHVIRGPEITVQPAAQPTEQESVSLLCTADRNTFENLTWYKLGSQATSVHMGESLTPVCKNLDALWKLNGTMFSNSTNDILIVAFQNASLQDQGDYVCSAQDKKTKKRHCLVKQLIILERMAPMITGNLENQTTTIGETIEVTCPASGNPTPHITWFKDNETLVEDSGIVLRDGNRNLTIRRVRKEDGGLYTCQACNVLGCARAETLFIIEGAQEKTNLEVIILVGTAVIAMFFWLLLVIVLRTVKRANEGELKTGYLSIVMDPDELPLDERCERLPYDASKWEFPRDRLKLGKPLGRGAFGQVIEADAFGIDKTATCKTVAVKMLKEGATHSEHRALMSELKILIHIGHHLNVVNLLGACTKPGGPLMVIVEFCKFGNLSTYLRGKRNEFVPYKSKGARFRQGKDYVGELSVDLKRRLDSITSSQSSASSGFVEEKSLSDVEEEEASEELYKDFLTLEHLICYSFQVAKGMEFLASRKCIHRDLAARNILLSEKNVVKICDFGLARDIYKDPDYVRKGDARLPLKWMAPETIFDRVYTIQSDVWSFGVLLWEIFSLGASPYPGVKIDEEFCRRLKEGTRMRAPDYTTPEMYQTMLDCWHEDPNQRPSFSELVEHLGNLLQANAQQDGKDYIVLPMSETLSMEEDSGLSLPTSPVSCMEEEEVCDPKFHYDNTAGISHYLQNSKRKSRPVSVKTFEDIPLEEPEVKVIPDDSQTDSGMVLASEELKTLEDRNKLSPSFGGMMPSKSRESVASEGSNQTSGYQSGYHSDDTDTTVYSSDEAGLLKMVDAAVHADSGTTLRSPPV
Catalogue of Fik Kinase %Inhibition values
# output: bare number, implied unit %

Some molecules with recorded Fik Kinase %Inhibition:
- CHEM SMILES: "O=C1Nc2ccc(CCCl)cc2C1=Cc1ccccc1Sc1ccc(Cl)cc1"
  ASSAYED SYSTEM: "FLK-1 receptor (Mus musculus, UniProt P35918)"
  Fik Kinase %Inhibition / %: 8.0
- CHEM SMILES: "Cc1cc(O)cc(O)c1C=C1C(=O)Nc2ccc(CCCl)cc21"
  ASSAYED SYSTEM: "FLK-1 receptor (Mus musculus, UniProt P35918)"
  Fik Kinase %Inhibition / %: -17.9
- CHEM SMILES: "O=C1Nc2ccc(CCCl)cc2C1=Cc1cc2ccccc2nc1Cl"
  ASSAYED SYSTEM: "FLK-1 receptor (Mus musculus, UniProt P35918)"
  Fik Kinase %Inhibition / %: 23.3

Lab note: measured Fik Kinase %Inhibition of CC(C)(C)c1cc(C=C2C(=O)Nc3ccc(CCCl)cc32)cc([N+](=O)[O-])c1O was 15.1

Lab note: measured Fik Kinase %Inhibition of COc1cccc(C=C2C(=O)Nc3c(Br)cc(Br)cc32)c1OC was 7.4

---

tested on: MET; test: MET biochemical kinase assay; parameters: species or system human; concentration or dose not given beside the values
Catalogue of Met Kinase % Inhibition values
# output: bare number, implied unit %

Some molecules with recorded Met Kinase % Inhibition:
- MOLECULE: "O=C1Nc2ccc(S(=O)(=O)Nc3ccc(C(F)(F)F)cc3)cc2C1=Cc1c(Br)cnn1-c1ccc(Cl)cc1 [10725/E10]"
  READOUT NUMBER: -4.7
- MOLECULE: "COc1ccc(OC)c(C=C2C(=O)Nc3ccc(CCCl)cc32)c1 [10728/G02]"
  READOUT NUMBER: 7.1
- MOLECULE: "Cc1cc2occ(C=C3C(=O)Nc4ccc(S(=O)(=O)Nc5ccc(C(F)(F)F)cc5)cc43)c(=O)c2cc1C [10731/E03]"
  READOUT NUMBER: 20.7
- MOLECULE: "CSc1ccc(C=C2C(=O)Nc3ccc(CCCl)cc32)s1 [10720/G07]"
  READOUT NUMBER: 12.9
- MOLECULE: "CCOc1cccc(C=C2C(=O)Nc3ccc(S(=O)(=O)Nc4ccc(C(F)(F)F)cc4)cc32)c1O [10734/E02]"
  READOUT NUMBER: 66.9

Lab note: measured Met Kinase % Inhibition of COC1CC(C=C2C(=O)Nc3ccc(S(=O)(=O)Nc4ccc(C(F)(F)F)cc4)cc32)C(OC)O1 (centres unmarked) [10730/E10] was 63.6

Lab note: measured Met Kinase % Inhibition of Cc1c(Br)ccc2c1C(=Cc1ccc(-c3ccccc3Cl)o1)C(=O)N2 [10730/C07] was 37.4

Lab note: measured Met Kinase % Inhibition of O=C1Nc2c(Br)cc(Br)cc2C1=Cc1cc(C(F)(F)F)ccc1F [10728/A08] was 40.2
